melting point values for the compounds below.

Enquiry: What value of melting point has been reported for the following compound? O=S(=O)(c1ccccc1)c1ccccn1
Return: 90 to 91 °C

Enquiry: melting point for COC(=O)c1cc([N+](=O)[O-])c[nH]1 ?
Return: 196 to 197 °C

Enquiry: I am curious: what melting point value has been reported for COC(=O)c1nc(-c2ccccc2)n(-c2ccc(Cl)cc2)n1 ?
Return: 136 to 137 °C

Enquiry: Any idea what its melting point is? The compound is CN(C)C(c1ccccc1)c1cc(C(C)(C)C)cc(C(C)(C)C)c1O (stereo not given)
Return: 120 to 123 °C

Enquiry: # input compound: COC(=O)COc1ccc(C(=O)OCc2ccccc2)cc1 ; wanted: its melting point
Return: 63 to 66 °C

Enquiry: Can you share its melting point? I mean this compound: CC(=CC(=O)c1cccs1)N1CCCC1
Return: 154 to 156 °C

Enquiry: Need melting point, item CCn1nc(-c2ccccc2)c(C(C)=O)c(Nc2ccc(CN)cc2)c1=O
Return: 139 °C

Enquiry: I am curious: what melting point value has been reported for NC(=O)Cc1cc(Oc2ccc3c(ccn3C(=O)Nc3ccc(CN4CCNCC4)c(C(F)(F)F)c3)c2)ncn1 ?
Return: 173 to 180 °C

Enquiry: Quick check: melting point of COC(=O)c1coc2ccc(C)cc12 ?
Return: 40 to 41 °C

Enquiry: May I ask what melting point has been recorded for COc1ccc(-c2nc(Sc3ccccc3)n(C)c2-c2ccc(OC)cc2)cc1 ?
Return: 115 to 117 °C

---

QUANTITY: melting point

O=C1c2cc(C(=O)N3CCCCC3)ccc2-c2ccc(C(=O)N3CCCCC3)cc21; 94.5 to 95.5 °C
CC(OC1CCCN(Cc2n[nH]c(=O)[nH]2)C1c1ccccc1)c1cc(C(F)(F)F)cc(C(F)(F)F)c1 (stereo not given); 214 to 215 °C

Enquiry: // lookup melting point for COC(=O)c1sc2cc(C(F)(F)F)ccc2c1NC(C)=O
Return: 204 to 205 °C

Enquiry: Any idea what its melting point is? The molecule is COC12CC(CNC(=S)NC(C)=O)CN(C)C1Cc1c[nH]c3cccc2c13 (stereo not given)
Return: 212 to 214 °C

Enquiry: Give the measured melting point of CC(C)N1CCN(Cc2cc(NC(=O)Nc3ccc(Oc4cc(Cl)ncn4)cc3)cc(C(F)(F)F)c2)CC1 .
Return: 101 °C

---

The reader will find reported melting point values listed item by item below.

COc1ccc2c(c1[N+](=O)[O-])CNCC(=O)N2; 220 to 222 °C
Cc1nc(N2CCCC(Cc3cccnc3)C2=O)sc1C(=O)NCc1ccccc1 (stereo not given); 140 to 141 °C
O=C1Nc2ccc(Oc3cc(F)c(C(F)(F)F)c(Cl)c3)cc2C12CC2; 168 to 170 °C
N#Cc1cnc2cc(O)ccc2c1Nc1ccc2cn[nH]c2c1; > 250 °C
COC(=O)Cc1c(C)n(O)c(=O)c2ccccc12; 185 to 190 °C

Enquiry: Would you kindly share the measured melting point for N=C(Nc1cccc(Cl)c1)Nc1nc(-c2ccccc2)cs1 ?
Return: 134 to 135 °C

Enquiry: # get_value(readout='melting point', item= CCCNc1ccc(C(=O)O)cc1[N+](=O)[O-] )
Return: 208 °C

Enquiry: Please give the measured melting point for this molecule: CC(=O)Nc1cccc(-c2ccccc2S(=O)(=O)Nc2onc(C)c2C)c1
Return: 168 to 171 °C

Enquiry: Fill in: melting point of CC1Sc2c(C(=O)O)c(=O)c3cc(F)c(N4CCOCC4)cc3n21 (stereo not given) is ___
Return: 192 to 198 °C

Enquiry: What measured melting point goes with CC(=O)C1=C(C)NC2=C(C(=O)CCC2)C1c1cccc([N+](=O)[O-])c1 (stereo not given) ?
Return: > 250 °C
